# Tested on: Fibroblast
# Assay: Incucyte cell viability with human fibroblast; note: unitless GR value; below 1 slowed growth and below 0 cell loss
# Type: toxicity, cell-based
# Test settings: 18 h, 10 µM, compound concentration 10 uM, replicate number 2
Measured metric: Growth Rate

INSERT INTO results (entry_smiles, measured_metric, readout_number) VALUES
  ('COc1ccc(OC(=O)N(CC(=O)O)Cc2ccc(OCCc3nc(-c4ccccc4)oc3C)cc2)cc1', 'Growth Rate', 0.72),
  ('COc1cc(/C=C(\C#N)C(=O)Nc2nnc(C(F)(F)F)s2)ccc1OCc1ccc(C(F)(F)F)cc1C(F)(F)F', 'Growth Rate', 0.84),
  ('Cn1cc(-c2ccc(-c3cncc(Cl)c3N3CCC4(CCNC4=O)CC3)cc2)cn1', 'Growth Rate', 0.87),
  ('O=C(Nc1ccc(Cl)c(-c2ccccn2)c1)c1cccc(COc2ccc(Br)cc2CNCCO)c1.O=CO', 'Growth Rate', -0.28),
  ('Cc1cc(CN)cc(C)c1-c1ncn(C)c1-c1cncn1C.Cl', 'Growth Rate', 0.77),
  ('CN(CCCCCCC1=C(c2cc(F)cc(F)c2)CCCc2cc(O)ccc21)CCCCS(=O)(=O)CCCC(F)(F)F', 'Growth Rate', -0.88),
  ('CC(C)(O)CNC(=O)N1C(=O)N(c2cccc(C(F)(F)F)c2)C2=C(C(=O)CC2)[C@@H]1c1ccc(C#N)cc1', 'Growth Rate', 0.94);
